# Lookup of reported Ratio keyed by entry
Target: UniProtKB O30412
Sequence (O30412 as listed by the source): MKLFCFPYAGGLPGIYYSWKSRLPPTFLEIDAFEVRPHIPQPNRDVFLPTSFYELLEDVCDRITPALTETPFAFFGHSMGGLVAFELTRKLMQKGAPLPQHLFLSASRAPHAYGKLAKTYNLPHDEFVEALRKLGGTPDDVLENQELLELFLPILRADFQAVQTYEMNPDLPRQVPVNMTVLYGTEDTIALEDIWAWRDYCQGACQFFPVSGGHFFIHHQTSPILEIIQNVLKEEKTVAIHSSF
Assay: Catalytic efficiency (Kcat/Km) was determined
Design: unit not given here
Just the number.

INSERT INTO measurements (molecule, outcomemeasure, reportedvalue) VALUES
  ('CC[C@H](C)[C@H](NC(=O)[C@H](Cc1ccccc1)NC(=O)[C@@H]1CCCN1C(=O)[C@H](N)Cc1ccccc1)C(=O)N[C@@H](CC(N)=O)C(=O)N[C@@H](CCC(N)=O)C(=O)N[C@@H](Cc1ccc(O)cc1)C(=O)N[C@H](C(=O)N[C@@H](CCCN)C(=O)N[C@@H](CC(C)C)C(=O)SCCNC(C)=O)C(C)C', 'Ratio', 0.33);

Request: Find the measured Ratio of CC(=O)NCCSC(=O)[C@H](CC(C)C)NC(=O)[C@H](CCCN)NC(=O)[C@@H](NC(=O)[C@H](Cc1ccc(O)cc1)NC(=O)[C@H](CCC(N)=O)NC(=O)[C@H](CC(N)=O)NC(=O)[C@@H](Cc1ccccc1)NC(=O)[C@H](Cc1ccccc1)NC(=O)[C@H](CC(N)=O)NC(=O)[C@H](N)Cc1ccccc1)C(C)C and report it.
Response: 0.084

Request: Find the measured Ratio of CC(=O)NCCSC(=O)[C@H](CC(C)C)NC(=O)[C@H](CCCN)NC(=O)[C@@H](NC(=O)[C@H](Cc1ccc(O)cc1)NC(=O)[C@@H](NC(=O)[C@H](CC(N)=O)NC(=O)[C@@H](Cc1ccccc1)NC(=O)[C@H](Cc1ccccc1)NC(=O)[C@@H]1CCCN1C(=O)[C@H](N)Cc1ccccc1)C(C)C)C(C)C and report it.
Response: 0.18

Request: Find the measured Ratio of CC(=O)NCCSC(=O)[C@H](CC(C)C)NC(=O)[C@H](CCCN)NC(=O)[C@H](CCC(N)=O)NC(=O)[C@H](Cc1ccc(O)cc1)NC(=O)[C@H](CCC(N)=O)NC(=O)[C@H](CC(N)=O)NC(=O)[C@@H](Cc1ccccc1)NC(=O)[C@H](Cc1ccccc1)NC(=O)[C@@H]1CCCN1C(=O)[C@H](N)Cc1ccccc1 and report it.
Response: 0.22

====

Molecular target: Thioesterase GrsT homolog tycF (Brevibacillus brevis)
Assay: Apparent kinetic constant (Kcat) for tyrocidine thioesterase amplified from Bacillus brevis (ATCC8185)
outcomeMeasure: k cat
Be sure to follow the number with its unit.

# count of solved cases: 2
INSERT INTO results (entrysmiles, reportedvalue) VALUES
  ('CC(=O)NCCSC(=O)[C@H](CC(C)C)NC(=O)[C@H](CCCN)NC(=O)[C@@H](NC(=O)[C@H](Cc1ccc(O)cc1)NC(=O)[C@H](CCC(N)=O)NC(=O)[C@H](CC(C)C)NC(=O)[C@@H](Cc1ccccc1)NC(=O)[C@H](Cc1ccccc1)NC(=O)[C@@H]1CCCN1C(=O)[C@H](N)Cc1ccccc1)C(C)C', '0.167 s⁻¹'),
  ('CC(=O)NCCSC(=O)[C@H](CC(C)C)NC(=O)[C@H](CCCN)NC(=O)[C@@H](NC(=O)[C@H](Cc1ccc(O)cc1)NC(=O)[C@H](CCC(N)=O)NC(=O)[C@H](CC(N)=O)NC(=O)[C@H](C)NC(=O)[C@H](Cc1ccccc1)NC(=O)[C@@H]1CCCN1C(=O)[C@H](N)Cc1ccccc1)C(C)C', '0.183 s⁻¹');

Next item in the queue.
Request: Find the measured k cat of CC(=O)NCCSC(=O)[C@H](CC(C)C)NC(=O)[C@H](CCCN)NC(=O)[C@@H](NC(=O)[C@H](Cc1ccc(O)cc1)NC(=O)[C@H](CCC(N)=O)NC(=O)[C@H](CC(N)=O)NC(=O)[C@H](CC(N)=O)NC(=O)[C@H](Cc1ccccc1)NC(=O)[C@@H]1CCCN1C(=O)[C@H](N)Cc1ccccc1)C(C)C and report it.
Response: 0.133 s⁻¹

Cited source for all entries: ChEMBL document CHEMBL1135258
